- target-or-test-system: Parkinson's disease protein 7 (PARK7/DJ1) (human, UniProt Q99497)
- Sequence (Q99497 whole entry, looked up): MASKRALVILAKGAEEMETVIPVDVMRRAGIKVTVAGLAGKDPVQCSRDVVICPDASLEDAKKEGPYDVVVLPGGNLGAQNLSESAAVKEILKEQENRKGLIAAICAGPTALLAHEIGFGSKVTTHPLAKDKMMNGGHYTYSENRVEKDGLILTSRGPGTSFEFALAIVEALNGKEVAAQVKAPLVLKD
- protocol-text: primary screen, percent inhibition; read as competition with a fluorescent probe by fluorescence polarization; higher = more effect of the substance
- condition-summary: 100 µM
- Method: The screen was conducted using the conditions as described above in 1536-well plates (Corning 3724) with a reaction volume of 8 μL per well. The compound library containing 7887 covalent fragments was purchased at Enamine Ltd. and received as 100 mM DMSO stocks in 384 well LDV Echo plates (Labcyte LP-0200). Stock solutions of 0.26 μM PARK7 and 80 nM JYQ-107 were prepared. […] After 2 h incubation, the FP signal was recorded on a BMG Labtech PHERAstar plate reader (λex/em 480/520 nm). […]
Hit rate of the full screen: of about 7,900 compounds, about 400 (5.1%) showed an effect of 50% or more. This excerpt belongs to a sample that is enriched for strong results.
measurement-label: Inhibition % (%)
Only the number, expressed in %, is required.

Answered examples (5):
N#Cc1ccc(C(=O)O)c(=O)[nH]1 = 83.7
COc1cc(C=C(C#N)C(N)=O)ccc1OC(C)C = 4.85
COc1ccc(C(=O)CCl)cc1F = 91.7
O=c1[nH]c(Cc2ccncc2)no1 = 6.48
C=CC(=O)NCCc1nc2ccc(F)cc2n1C = 3.72

Please give the measured Inhibition % for this molecule: `COc1ccc(C2=NC(=Cc3csc(C)n3)C(=O)O2)cc1` 14.1

Please give the measured Inhibition % for this molecule: `N#Cc1nc(-c2ccc(Cl)cc2Cl)oc1N` -2.51

Please give the measured Inhibition % for this molecule: `C=CC(=O)N1C[C@]2(C)COC[C@]2(C)C1` 9.62
